Values were extracted from paper PMC5115981.

Experiment: Single dose pharmacokinetics in mice
Format: in vivo, mouse
Conditions: female, heterozygous Foxn1nu/Foxn1+, mouse, brain, po, 30 mg/kg
property.measured: Tmax (min)
Give bare numbers, in min.

(Q) Looking for the measured Tmax of COc1ccc(C2=Nn3c(nnc3-c3cc(-c4ccc(Cl)cc4)n[nH]3)SC2C)cc1 (stereo not shown) [UPCDC-10205] , can you help?
(A) 5

====

Experiment: Single dose pharmacokinetics in mice
Type: in vivo, mouse
Settings: female, heterozygous Foxn1nu/Foxn1+, mouse, lung, po, 30 mg/kg
property.measured: AUC(0-t) (ng·h/mL)
Answers are plain numbers, in ng·h/mL.

(Q) Looking for the measured AUC(0-t) of COc1ccc(C2=Nn3c(nnc3-c3cc(-c4ccc(Cl)cc4)n[nH]3)SC2C)cc1 (stereo not shown) [UPCDC-10205] , can you help?
(A) 186

====

Experiment: Single dose pharmacokinetics in mice
Assay type: in vivo, mouse
Settings: female, heterozygous Foxn1nu/Foxn1+, mouse, brain, iv, 4 mg/kg
property.measured: Tmax (min)
One number for each entry, in min.

(Q) Looking for the measured Tmax of COc1ccc(C2=Nn3c(nnc3-c3cc(-c4ccc(Cl)cc4)n[nH]3)SC2C)cc1 (stereo not shown) , can you help?
(A) 15

====

Test: Single dose pharmacokinetics in mice
Assay type: in vivo, mouse
Details: female, heterozygous Foxn1nu/Foxn1+, mouse, plasma, iv, 4 mg/kg, Cmax, mice, IV 4 mg/kg in 10% Solutol HS, plasma
property.measured: Cmax
Please state the number and follow it with the unit.

(Q) Looking for the measured Cmax of COc1ccc(C2=Nn3c(nnc3-c3cc(-c4ccc(Cl)cc4)n[nH]3)SC2C)cc1 (stereo not shown) , can you help?
(A) 1.71 µg/mL

====

Assay: Single dose pharmacokinetics in mice
Assay type: in vivo, mouse
Conditions: female, heterozygous Foxn1nu/Foxn1+, mouse, muscle, iv, 4 mg/kg, Cmax, mice, IV 4 mg/kg in 10% Solutol HS, muscle
property.measured: Cmax (ng/mL)
Give bare numbers, in ng/mL.

(Q) Looking for the measured Cmax of COc1ccc(C2=Nn3c(nnc3-c3cc(-c4ccc(Cl)cc4)n[nH]3)SC2C)cc1 (stereo not shown) [UPCDC-10205] , can you help?
(A) 1900
